# ASSAY SUMMARY: CREB reporter modulators without forskolin, primary screen, cell-based, PC12, CRE-LacZ reporter, unstimulated (AID 1145)
# REPORTED CONDITIONS: no forskolin, luminescence, 4.5 h, higher = more signal, called active from +8 up or from −8 down
MEASURED PROPERTY: z-score
Give the value as a plain number.

As a guide, the following entries are already answered.
CC(=O)n1cc(C(O)C2C=CC3C(=O)N(c4ccccc4)C(=O)C3N2Nc2ccc(C(C)C)cc2)c2ccccc21 (stereo unspecified)    0.24
O=C1O[C@H](c2ccccc2)[C@H](c2ccccc2)N2[C@H]1[C@@H](C(=O)O)[C@]1(C(=O)Nc3ccc(C#CC4(O)CCCCCC4)cc31)[C@H]2c1ccc(O)cc1    -1.29
COC(=O)C(CC#Cc1ccc2c(c1)[C@]1(C(=O)N2)[C@H](c2ccc(OCCO)cc2)N2[C@H](c3ccccc3)[C@H](c3ccccc3)OC(=O)[C@H]2[C@@H]1C(=O)N1CCN(c2ncccn2)CC1)C(=O)OC    -0.554
C=C(COC)/C(=C/C[C@@H](OC(C)=O)c1ccc(CO)o1)c1cc(C(=O)OC)ccc1OC    -0.0602
NC(=O)[C@H]1[C@@H]2C(=O)O[C@@H](c3ccccc3)[C@@H](c3ccccc3)N2[C@@H](c2ccc(O)cc2)[C@]12C(=O)Nc1ccc(C#CC3=CCCCC3)cc12    0.478

Given COCCCNC(=O)[C@@]1(Sc2ccc(C)cc2)CC(=O)N(Cc2ccccc2Cl)[C@@H]1c1ccc(CO)cc1I , state its recorded z-score.
-0.168

###

# ASSAY SUMMARY: HepG2 cell viability effects, profiling panel, calcein-AM fluorescence, 48 h, basal (AID 1164); further: test concentration not given here
# REPORTED CONDITIONS: higher = more signal
# z-score per record follows
Reply: number alone, nothing else.

Consider the worked cases shown below.
O=C1[C@@H]2[C@@H](CC(COc3ccccc3)=C3[C@@H](CCc4ccccc4)OB(O)C[C@@H]32)C(=O)N1Cc1ccccc1    -0.752
CC(C)C(CO)N1C(=O)[C@@H]2[C@H]3C(=O)OCC=C[C@H]3OC23C=CCN(C(C)(C)C)C(=O)[C@@H]13 (stereo partly drawn)    -0.543
O=C1C2C=CC(C(O)c3ccc(I)cc3)N(Nc3ccccc3)C2C(=O)N1c1ccccc1 (stereo not drawn)    0.1
C=C(CCCC)C(=O)CC[C@H](OC(=O)c1ccccc1-c1ccccc1C(=O)O)c1ccccc1OCCO    -0.669
C=CCC(OC(C)=O)[C@@H]1[C@@H](N(Cc2ccc(-c3cccc(C(F)(F)F)c3)o2)C(=O)Cc2ccc(OC)cc2)c2cc(OCCCO)ccc2N1C(=O)Cc1ccc2ccccc2c1 (stereo partly drawn)    0.73

Give the measured z-score of COc1ccc(C#Cc2ccc3c(c2)[C@]2(C(=O)N3)[C@H](C(=O)Nc3nc4ccccc4s3)[C@H]3C(=O)O[C@H](c4ccccc4)[C@H](c4ccccc4)N3[C@@H]2c2ccccc2OCCO)cc1 .
0.211

Which measured z-score value corresponds to CC(=O)n1cc(C(O)C2C=CC3C(=O)N(c4ccccc4)C(=O)C3N2Nc2ccc(C(C)C)cc2)c2ccccc21 (stereo not drawn) ?
-1.08

Reported z-score for COc1ccc(C#Cc2ccc3c(c2)[C@]2(C(=O)N3)[C@H](C(=O)N3CCCCCCC3)[C@H]3C(=O)O[C@H](c4ccccc4)[C@H](c4ccccc4)N3[C@@H]2c2ccc(O)cc2)cc1 : what is it?
-0.984

Would you kindly share the measured z-score for O=C1OCCC/C=C\[C@H]2OC34C=CCN(c5ccc6ccccc6c5)C(=O)[C@H]3N(CCCO)C(=O)[C@@H]4C12 (stereo partly drawn) ?
0.275

For COc1cccc(/C=C(\C#N)C(=O)Nc2c(C)n(C)n(-c3ccccc3)c2=O)c1 , what is its reported z-score?
1.01

For the compound shown here, O=C1OCCC=C[C@H]2OC34C=CCN(c5ccc(Cl)cc5)C(=O)[C@H]3N(CCCCCCO)C(=O)[C@@H]4C12 (stereo partly drawn) , give the reported z-score.
1.21

Given the compound C=CCNC(=O)[C@H]1[C@@H]2C(=O)O[C@@H](c3ccccc3)[C@@H](c3ccccc3)N2[C@@H](c2ccc(OCCO)cc2)[C@]12C(=O)Nc1ccc(C#CCNC(N)=O)cc12 , what is its reported z-score?
-0.529

Data request, read-out z-score, for COc1ccc(C(O)C2C=CC3C(=O)N(c4ccccc4)C(=O)C3N2Nc2ccccc2)cc1 (stereo not drawn)
0.204

Name the reported z-score value associated with the compound Cc1ccc(F)cc1S(=O)(=O)N[C@@H]1CCN(Cc2cccc3[nH]ccc23)C1
-0.415

Quick check: z-score of O=C(O)[C@@H]1C[C@@H]2C(=O)N3CCC[C@H]3C(=O)N2[C@@H]1c1cccc(OCCO)c1 ?
-0.439

Which z-score is listed for CCOC(=O)C1=C[C@@H](c2ccccc2)N(S(=O)(=O)c2ccc(C)cc2)[C@H]1c1ccccc1 ?
-0.813

# lookup: z-score of C=CCC(OC(C)=O)[C@@H]1[C@@H](N(Cc2ccc(-c3cccc(C(F)(F)F)c3)o2)C(=O)c2ccc(C)cc2)c2cc(OCCCO)ccc2N1C(=O)Cc1ccc(OC)cc1 (stereo partly drawn)
2.12

Item COCC(=C=CC[C@@H](O)c1cccc(OCCO)c1)CCO has what recorded z-score?
0.356

What value of z-score has been reported for the following compound? Cc1ccccc1C(O)C1C=CC2C(=O)NC(=O)C2N1Nc1ccc(Cl)cc1Cl (stereo not drawn)
-0.245

// z-score lookup, key: COCCOC(=O)N1C(=O)[C@@]2(c3cc(C#CCCO)ccc31)[C@H](C(=O)N1CCCCCCC1)[C@H]1C(=O)O[C@H](c3ccccc3)[C@H](c3ccccc3)N1[C@@H]2c1ccccc1OCCO
0.566

Sample C=C(CCCC)/C(=C/C[C@H](OC(C)=O)c1ccc(OCCO)cc1)c1cc(C(=O)OC)ccc1OC — what was its z-score?
1.74

Query: z-score; subject: C=CCNC(=O)[C@@H]1[C@H]2C(=O)O[C@H](c3ccccc3)[C@H](c3ccccc3)N2[C@H](c2ccc(OCCO)cc2)[C@@]12C(=O)N(C(=O)OCCOC)c1ccc(C#CCCO)cc12
1.22

Which z-score reading was recorded for the compound COC(=O)C(CC#Cc1ccc2c(c1)[C@]1(C(=O)N2)[C@H](C(=O)Nc2nc3ccccc3s2)[C@H]2C(=O)O[C@H](c3ccccc3)[C@H](c3ccccc3)N2[C@@H]1c1ccc(OCCO)cc1)C(=O)OC ?
1.64

Entry CCOC(=O)C=Cc1cc(F)ccc1O has what z-score?
-0.714

Data request, read-out z-score, for CCCNC(=O)[C@@]1(Sc2ccc(C)cc2)CC(=O)N(C2CCCCC2)[C@@H]1c1ccc(CO)cc1I
0.265

# get_value(readout='z-score', item= CC(CO)N1C(=O)[C@@H]2[C@H]3C(=O)OCC=C[C@H]3OC23C=CCN(c2ccc(Cl)cc2)C(=O)[C@@H]13 (stereo partly drawn) )
0.336

Look at this compound and give its reported z-score. [N-]=[N+]=NCc1ccccc1[C@@H]1OC(c2ccc(OCCCO)cc2)=N[C@]1(Cc1ccccc1N=[N+]=[N-])C(=O)NCCN1CCOCC1
0.695

Would you kindly share the measured z-score for COCCOC(=O)N1C(=O)[C@@]2(c3ccccc31)[C@H](c1ccccc1OCCO)N1[C@H](c3ccccc3)[C@H](c3ccccc3)OC(=O)[C@H]1[C@@H]2C(=O)N1CCCCCCC1 ?
0.104
